Biological target: T1, mouse HVEM extracellular domain fused with an Fc fragment at the C-terminus (mouse, UniProt Q80WM9 39-206, limits assumed)
T1 construct: extracellular domain; Bought; also called mHVEM; not shown: Fc fragment at the C-terminus
T1 sequence (looked up): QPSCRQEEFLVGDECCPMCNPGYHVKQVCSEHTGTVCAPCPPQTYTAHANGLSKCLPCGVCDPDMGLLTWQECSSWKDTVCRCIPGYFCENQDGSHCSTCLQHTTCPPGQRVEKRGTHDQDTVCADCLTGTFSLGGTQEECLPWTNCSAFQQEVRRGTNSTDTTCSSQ
Experiment: phage ELISA
MEASURE NAME: binding result

BINDER	EXPERIMENTAL RESULT
LIGHT-40 (ligand, Printed mutations: L156P, H208Y; Soluble protein carries an N-terminal His tag) DGPAGSWEQLIQERRSHEVNPAAHLTGANSSLTGSGGPLLWETQLGLAFLRGLSYHDGALVVTKAGYYYIYSKVQLGGVGCPPGLASTITHGLYKRTPRYPEELELLVSQQSPCGRATSSSRVWWDSSFLGGVVYLEAGEKVVVRVLDERLVRLRDGTRSYFGAFMV	binds
LIGHT-51 (ligand, Printed mutations: A101D, S160N, L220S; Soluble protein carries an N-terminal His tag) DGPAGSWEQLIQERRSHEVNPAAHLTGDNSSLTGSGGPLLWETQLGLAFLRGLSYHDGALVVTKAGYYYIYSKVQLGGVGCPLGLANTITHGLYKRTPRYPEELELLVSQQSPCGRATSSSRVWWDSSFLGGVVHLEAGEKVVVRVSDERLVRLRDGTRSYFGAFMV	binds
LIGHT-45 (ligand, Printed mutations: G150S, S160P, T161S, L220S, R223H; Soluble protein carries an N-terminal His tag) DGPAGSWEQLIQERRSHEVNPAAHLTGANSSLTGSGGPLLWETQLGLAFLRGLSYHDGALVVTKAGYYYIYSKVQLSGVGCPLGLAPSITHGLYKRTPRYPEELELLVSQQSPCGRATSSSRVWWDSSFLGGVVHLEAGEKVVVRVSDEHLVRLRDGTRSYFGAFMV	binds

Measured values drawn from patent US20250361288A1 for this set.
